experimental.system: μ opioid receptors (MOR) (Rattus norvegicus, UniProt P33535)
Construct: expressed in transfected cells
Sequence (P33535 whole entry): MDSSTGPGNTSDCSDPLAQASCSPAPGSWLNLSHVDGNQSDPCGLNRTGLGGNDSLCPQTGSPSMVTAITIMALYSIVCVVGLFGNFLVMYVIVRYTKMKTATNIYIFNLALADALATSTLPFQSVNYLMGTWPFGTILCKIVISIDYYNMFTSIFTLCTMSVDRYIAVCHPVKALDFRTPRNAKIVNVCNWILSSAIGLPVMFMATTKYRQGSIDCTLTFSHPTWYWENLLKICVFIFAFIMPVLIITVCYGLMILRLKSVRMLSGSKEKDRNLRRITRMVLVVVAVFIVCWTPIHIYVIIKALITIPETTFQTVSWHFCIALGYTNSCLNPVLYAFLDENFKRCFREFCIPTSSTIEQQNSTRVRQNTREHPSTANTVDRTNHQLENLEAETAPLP
assay.method.text: Radioligand binding, μ opioid receptor, CHO cells ([3H][D-Ala2,NMePhe4,glyol]enkephalin)
reported.conditions: CHO membranes expressing MOR; read-out: MOR Ki
pKi: −log10 of the molar value. Where a SMILES comes first, the peptide text is derived from it.
measured.attribute: pKi

[
  {
    "compound": "C[C@H]1NC(=O)[C@H](Cc2ccccc2)NC(=O)[C@H]2CCCN2C(=O)[C@H](Cc2ccccc2)NC1=O",
    "assay.result": 6.11
  },
  {
    "compound": "C[C@@H]1NC(=O)[C@H]2CCCN2C(=O)[C@H](Cc2ccccc2)NC(=O)[C@@H](Cc2c[nH]c3ccccc23)NC1=O [JVA 3004] (HELM PEPTIDE1{A.[dW].F.[dP]}$PEPTIDE1,PEPTIDE1,1:R1-4:R2$$$V2.0)",
    "assay.result": 6.73
  },
  {
    "compound": "C[C@@H]1NC(=O)[C@@H](Cc2c[nH]c3ccccc23)NC(=O)[C@H](Cc2ccccc2)NC(=O)[C@H]2CCCN2C1=O [JVA-3003, cyclo[D-Trp-Ala-D-Pro-Phe]] (HELM PEPTIDE1{A.[dP].F.[dW]}$PEPTIDE1,PEPTIDE1,1:R1-4:R2$$$V2.0)",
    "assay.result": 7.56
  },
  {
    "compound": "C[C@@H]1C(=O)N[C@@H](Cc2ccccc2)C(=O)N[C@H](Cc2c[nH]c3ccccc23)C(=O)N[C@@H](Cc2ccccc2)C(=O)N1C [JVA 3001] (HELM PEPTIDE1{F.[C[C@H](C(=O)[*:2])N(C)[*:1]].F.[dW]}$PEPTIDE1,PEPTIDE1,1:R1-4:R2$$$V2.0)",
    "assay.result": 7.24
  }
]

---

experimental.system: δ opioid receptors (DOR) (Mus musculus, UniProt P32300)
Construct: expressed in transfected cells
Sequence (P32300 whole entry): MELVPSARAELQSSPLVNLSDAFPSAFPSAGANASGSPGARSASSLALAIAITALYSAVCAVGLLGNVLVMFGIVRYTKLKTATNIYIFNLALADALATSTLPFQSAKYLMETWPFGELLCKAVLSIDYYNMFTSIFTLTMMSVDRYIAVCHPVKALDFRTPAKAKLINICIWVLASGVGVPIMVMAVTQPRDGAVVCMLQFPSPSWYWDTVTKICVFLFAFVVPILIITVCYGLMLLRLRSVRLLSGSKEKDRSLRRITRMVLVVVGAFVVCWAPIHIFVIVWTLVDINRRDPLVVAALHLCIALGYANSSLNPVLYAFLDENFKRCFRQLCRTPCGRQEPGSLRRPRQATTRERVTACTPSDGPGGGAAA
assay.method.text: Radioligand binding, δ opioid receptor, CHO cells ([3H]cyclo[D-Pen2,D-Pen5]enkephalin)
reported.conditions: CHO membranes expressing DOR; read-out: DOR Ki
Where a SMILES comes first, the peptide text is derived from it.
Listed molecules paired with reported Ki
measured.attribute: Ki (µM)

[
  {
    "molecule": "C[C@@H]1C(=O)N[C@@H](Cc2ccccc2)C(=O)N[C@H](Cc2c[nH]c3ccccc23)C(=O)N[C@@H](Cc2ccccc2)C(=O)N1C [JVA 3001] (HELM PEPTIDE1{F.[C[C@H](C(=O)[*:2])N(C)[*:1]].F.[dW]}$PEPTIDE1,PEPTIDE1,1:R1-4:R2$$$V2.0)",
    "measure.unit": "µM",
    "assay.result": 5.69
  },
  {
    "molecule": "C[C@@H]1NC(=O)[C@@H](Cc2c[nH]c3ccccc23)NC(=O)[C@H](Cc2ccccc2)NC(=O)[C@H]2CCCN2C1=O [JVA-3003, cyclo[D-Trp-Ala-D-Pro-Phe]] (HELM PEPTIDE1{A.[dP].F.[dW]}$PEPTIDE1,PEPTIDE1,1:R1-4:R2$$$V2.0)",
    "measure.unit": "µM",
    "assay.result": 0.833
  },
  {
    "molecule": "C[C@H]1NC(=O)[C@H](Cc2ccccc2)NC(=O)[C@H]2CCCN2C(=O)[C@H](Cc2ccccc2)NC1=O",
    "measure.unit": "µM",
    "assay.result": 11
  },
  {
    "molecule": "C[C@@H]1NC(=O)[C@H]2CCCN2C(=O)[C@H](Cc2ccccc2)NC(=O)[C@@H](Cc2c[nH]c3ccccc23)NC1=O [JVA 3004] (HELM PEPTIDE1{A.[dW].F.[dP]}$PEPTIDE1,PEPTIDE1,1:R1-4:R2$$$V2.0)",
    "measure.unit": "µM",
    "assay.result": 18
  }
]

---

experimental.system: κ opioid receptors (KOR)
Type: binding
reported.conditions: [3H]diprenorphine, CHO membranes expressing KOR; read-out: KOR Ki
Where a SMILES comes first, the peptide text is derived from it.
measured.attribute: Ki (nM)

[
  {
    "molecule": "C[C@@H]1C(=O)N[C@@H](Cc2ccccc2)C(=O)N[C@H](Cc2c[nH]c3ccccc23)C(=O)N[C@@H](Cc2ccccc2)C(=O)N1C [JVA 3001] (HELM PEPTIDE1{F.[C[C@H](C(=O)[*:2])N(C)[*:1]].F.[dW]}$PEPTIDE1,PEPTIDE1,1:R1-4:R2$$$V2.0)",
    "measure.unit": "nM",
    "assay.result": 68.9
  },
  {
    "molecule": "C[C@@H]1NC(=O)[C@H]2CCCN2C(=O)[C@H](Cc2ccccc2)NC(=O)[C@@H](Cc2c[nH]c3ccccc23)NC1=O [JVA 3004] (HELM PEPTIDE1{A.[dW].F.[dP]}$PEPTIDE1,PEPTIDE1,1:R1-4:R2$$$V2.0)",
    "measure.unit": "nM",
    "assay.result": 169
  },
  {
    "molecule": "C[C@@H]1NC(=O)[C@@H](Cc2c[nH]c3ccccc23)NC(=O)[C@H](Cc2ccccc2)NC(=O)[C@H]2CCCN2C1=O [JVA-3003, cyclo[D-Trp-Ala-D-Pro-Phe]] (HELM PEPTIDE1{A.[dP].F.[dW]}$PEPTIDE1,PEPTIDE1,1:R1-4:R2$$$V2.0)",
    "measure.unit": "nM",
    "assay.result": 2.81
  },
  {
    "molecule": "C[C@H]1NC(=O)[C@H](Cc2ccccc2)NC(=O)[C@H]2CCCN2C(=O)[C@H](Cc2ccccc2)NC1=O",
    "measure.unit": "nM",
    "assay.result": 1250
  }
]

---

Entries and their Ki values follow.
experimental.system: κ opioid receptors (KOR)
Format: binding
reported.conditions: CHO cells stably expressing κ receptors; [3H]diprenorphine; (n) in brackets; read-out: Ki (nM ± SEM) κ
Where a SMILES comes first, the peptide text is derived from it.

[
  {
    "molecule": "O=C1N[C@H](Cc2c[nH]c3ccccc23)C(=O)N[C@@H](Cc2ccccc2)C(=O)N2CCC[C@@H]2C(=O)N[C@H]1Cc1ccccc1 [JVA-2802, cyclo[D-Trp-Phe-D-Pro-Phe]] (HELM PEPTIDE1{F.[dP].F.[dW]}$PEPTIDE1,PEPTIDE1,1:R1-4:R2$$$V2.0)",
    "experimental.system": "κ opioid receptors (KOR)",
    "Ki": "30.6 nM"
  },
  {
    "molecule": "C[C@@H]1NC(=O)[C@H](Cc2c[nH]c3ccccc23)NC(=O)[C@H](Cc2ccccc2)NC(=O)[C@H]2CCCN2C1=O [JVA-2803, cyclo[Trp-Ala-D-Pro-Phe]] (HELM PEPTIDE1{A.[dP].F.W}$PEPTIDE1,PEPTIDE1,1:R1-4:R2$$$V2.0)",
    "experimental.system": "κ opioid receptors (KOR)",
    "Ki": "8.03 nM"
  },
  {
    "molecule": "O=C1N[C@@H](Cc2ccccc2)C(=O)N2CCC[C@@H]2C(=O)N[C@@H](Cc2ccccc2)C(=O)N[C@H]1Cc1c[nH]c2ccccc12 [JVA-2801, cyclo[Trp-Phe-D-Pro-Phe]] (HELM PEPTIDE1{F.W.F.[dP]}$PEPTIDE1,PEPTIDE1,1:R1-4:R2$$$V2.0)",
    "experimental.system": "κ opioid receptors (KOR)",
    "Ki": "35.4 nM"
  },
  {
    "molecule": "C[C@@H]1NC(=O)[C@@H](Cc2c[nH]c3ccccc23)NC(=O)[C@H](Cc2ccccc2)NC(=O)[C@H]2CCCN2C1=O [JVA-3003, cyclo[D-Trp-Ala-D-Pro-Phe]] (HELM PEPTIDE1{A.[dP].F.[dW]}$PEPTIDE1,PEPTIDE1,1:R1-4:R2$$$V2.0)",
    "experimental.system": "κ opioid receptors (KOR)",
    "Ki": "3.15 nM"
  }
]
